Numbers sourced from PubChem BioAssay.

- target_of_assay: Focal adhesion kinase 1 (Homo sapiens)
- experiment_description: small-molecule microarray binders of FAK, primary screen, biochemical, 635/667 nm fluorescence, BSA, DTT (AID 1130);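 further: composite of spot emission at 667 nm and signal to noise over triplicate slides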
- condition_info: PTK2 binding, 635 nm fluorescence, higher = more signal
Label scheme for composite z-score: lower than 0.08 is false (0), 0.08 and above is true (1).

Consider the worked cases shown below.
compound	group
C[C@H]1C2=C3C(CC[C@H]4C(OCc5ccc(F)cc5C(F)(F)F)OC[C@](C)([C@@H]34)N(C(=O)OC(C)(C)C)C2)C(CO)C1CO (some centres not stated)	true (1)
COC(=O)C1(Cc2ccccc2)C=C2C(=C(c3ccccc3)C(=O)C2C)CN1 (configuration not stated)	false (0)

-- ask # bool: composite z-score of CC(=O)NCCCC[C@@H]1NC(=O)[C@@H]2C[C@H](C(=O)O)[C@H](c3ccc(O)cc3)N2C1=O >= 0.08
-- reply false (0)

-- ask # bool: composite z-score of O=C1O[C@@H](c2ccccc2)[C@@H](c2ccccc2)N2[C@@H](c3ccccc3OCCO)[C@]3(C(=O)Nc4ccc(C#CCCO)cc43)[C@@H](C(=O)N3CCN(c4ncccn4)CC3)[C@H]12 >= 0.08
-- reply true (1)

-- ask # bool: composite z-score of CCOC(=O)C[C@H]1[C@H](OC(=O)Cc2ccc3c(c2)OCO3)[C@@H](NC(=O)Cc2ccc(OC)cc2)c2cc(OCCCO)ccc2N1C(=O)c1ccccc1 >= 0.08
-- reply true (1)

-- ask # bool: composite z-score of Cc1ccc(S[C@]2(C(=O)NC(C)C)CC(=O)N(C3Cc4ccccc4C3)[C@@H]2c2ccc(CO)cc2I)cc1 >= 0.08
-- reply false (0)
